# MEASURED_TARGET: vanilloid receptor (VR1) (Homo sapiens, UniProt Q8NER1)
# Construct: expressed in transfected cells; host or cells: CHO K1 cells (ECACC), stably transfected
# Sequence (Q8NER1 whole entry): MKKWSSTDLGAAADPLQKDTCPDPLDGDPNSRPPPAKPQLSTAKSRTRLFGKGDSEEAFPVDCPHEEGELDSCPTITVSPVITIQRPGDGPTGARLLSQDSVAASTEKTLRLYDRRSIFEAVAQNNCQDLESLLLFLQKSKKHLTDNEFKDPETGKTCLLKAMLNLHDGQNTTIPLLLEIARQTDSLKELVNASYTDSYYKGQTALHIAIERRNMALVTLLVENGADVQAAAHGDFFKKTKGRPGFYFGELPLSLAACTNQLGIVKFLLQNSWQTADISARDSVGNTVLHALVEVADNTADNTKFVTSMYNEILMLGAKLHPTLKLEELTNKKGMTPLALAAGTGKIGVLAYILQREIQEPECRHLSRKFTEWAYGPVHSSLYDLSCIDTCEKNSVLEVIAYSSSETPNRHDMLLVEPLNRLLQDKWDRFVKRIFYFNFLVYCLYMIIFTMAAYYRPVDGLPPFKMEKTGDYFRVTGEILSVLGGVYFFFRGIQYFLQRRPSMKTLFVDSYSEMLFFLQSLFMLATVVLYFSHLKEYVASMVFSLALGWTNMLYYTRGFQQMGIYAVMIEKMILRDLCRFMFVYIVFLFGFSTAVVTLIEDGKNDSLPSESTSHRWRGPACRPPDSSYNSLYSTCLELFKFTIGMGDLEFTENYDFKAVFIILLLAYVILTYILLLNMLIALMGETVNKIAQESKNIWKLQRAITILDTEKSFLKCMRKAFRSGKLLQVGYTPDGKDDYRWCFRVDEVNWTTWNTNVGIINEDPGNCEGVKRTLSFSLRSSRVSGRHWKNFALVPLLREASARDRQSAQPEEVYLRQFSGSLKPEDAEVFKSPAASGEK
# EXPERIMENT_DESCRIPTION: FLIPR Ca2+ influx assay on CHO K1 cells transfected with the VR1 gene (pharmacological method II)
# Type: cell-based
# APPLIED_CONDITIONS: table 4; capsaicin; read-out: Ki (human) Cap.
MEASURED_PROPERTY: pKi
Notebook: values listed as pKi are -log10 of the concentration (mol/L).

molecule="CC1CCCN(c2nc(C(F)(F)F)ccc2CNC(=O)C(C)c2ccc(NS(C)(=O)=O)c(F)c2)C1 (stereo not shown)" measured_target="vanilloid receptor (VR1) (Homo sapiens, UniProt Q8NER1)" result_value=9.10
molecule="CC(C)COc1nc(C(C)(C)C)ccc1CNC(=O)C(C)c1ccc(NS(C)(=O)=O)c(F)c1 (stereo not shown)" measured_target="vanilloid receptor (VR1) (Homo sapiens, UniProt Q8NER1)" result_value=9.22
molecule="CC(C(=O)NCc1ccc(C(F)(F)F)nc1N1CCN(c2ccc(C(F)(F)F)cc2)CC1)c1ccc(NS(C)(=O)=O)c(F)c1 (stereo not shown)" measured_target="vanilloid receptor (VR1) (Homo sapiens, UniProt Q8NER1)" result_value=8.47

Problem: Provide measured pKi value, entry: CC(C(=O)NCc1ccc(C(F)(F)F)nc1N(C)C)c1ccc(NS(C)(=O)=O)c(F)c1 (stereo not shown)
Result: 7.72

Problem: Provide measured pKi value, entry: COc1ccc(-c2nc(C(F)(F)F)ccc2CNC(=O)C(C)c2ccc(NS(C)(=O)=O)c(F)c2)cc1F (stereo not shown)
Result: 8.38

Problem: Provide measured pKi value, entry: `CC(C)COc1nc(C(F)(F)F)ccc1CNC(=O)[C@@H](C)c1ccc(NS(C)(=O)=O)c(F)c1`
Result: 9.30

Problem: Provide measured pKi value, entry: CCCCCCOc1nc(C(F)(F)F)ccc1CNC(=O)C(C)c1ccc(NS(C)(=O)=O)c(F)c1 (stereo not shown) [Example 376]
Result: 9.10
